test system: T. cruzi intracellular amastigotes (Tulahuen lacZ strain); test: Antitrypanosomal assay, intracellular amastigotes in LLC-MK2 cells, CPRG readout; type: cell-based, Trypanosoma cruzi; settings: CC50 LLC-MK2 / IC50 amastigotes
SI, selectivity index: CC50 of LLC-MK2 cells/IC50 of intracellular amastigotes: recorded values

Worked cases, SI, selectivity index: CC50 of LLC-MK2 cells/IC50 of intracellular amastigotes given:
INSERT INTO measurements (compound, target_desc, result) VALUES
  ('O=[N+]([O-])c1nccn1Cc1cc(-c2ccc(Oc3ccc(Cl)c(Cl)c3)cc2)no1 [Compound 6d]', 'T. cruzi intracellular amastigotes (Tulahuen lacZ strain)', '>35.9'),
  ('Cc1ccc(Oc2ccc(-c3cc(Cn4ccnc4[N+](=O)[O-])on3)cc2)cc1 [Compound 6f]', 'T. cruzi intracellular amastigotes (Tulahuen lacZ strain)', '>56.5'),
  ('COc1ccc(Oc2ccc(-c3cc(Cn4ccnc4[N+](=O)[O-])on3)cc2)cc1 [Compound 6g]', 'T. cruzi intracellular amastigotes (Tulahuen lacZ strain)', '>155.3'),
  ('O=[N+]([O-])c1nccn1Cc1cc(-c2ccc(Oc3ccc(Cl)cc3)c(F)c2)no1 [Compound 6j]', 'T. cruzi intracellular amastigotes (Tulahuen lacZ strain)', '>64.1'),
  ('O=[N+]([O-])c1nccn1Cc1cc(-c2ccc(Oc3ccccc3)cc2)no1 [Compound 6a]', 'T. cruzi intracellular amastigotes (Tulahuen lacZ strain)', '>82.2'),
  ('O=[N+]([O-])c1nccn1Cc1cc(-c2ccc(Oc3ccc(Cl)c(Cl)c3)c(F)c2)no1 [Compound 6k]', 'T. cruzi intracellular amastigotes (Tulahuen lacZ strain)', '>11.8'),
  ('O=[N+]([O-])c1nccn1Cc1cc(-c2ccc(Oc3ccc(OC(F)(F)F)cc3)cc2)no1 [Compound 6e]', 'T. cruzi intracellular amastigotes (Tulahuen lacZ strain)', '>80.1'),
  ('O=C(Cn1ccnc1[N+](=O)[O-])NCc1ccccc1 [BZN, benznidazole, reference compound]', 'T. cruzi intracellular amastigotes (Tulahuen lacZ strain)', '>17.6');

Proceed to the following item.
For O=[N+]([O-])c1nccn1Cc1cc(-c2ccc(Oc3ccc(Cl)cc3)cc2)no1 [Compound 6c] , what is its reported SI, selectivity index: CC50 of LLC-MK2 cells/IC50 of intracellular amastigotes?
>99.0

---

test system: T. cruzi intracellular amastigotes (Tulahuen lacZ strain); assay: Antitrypanosomal assay, intracellular amastigotes in LLC-MK2 cells, CPRG readout; assay type: cell-based, Trypanosoma cruzi; details: CC50 LLC-MK2 / IC50 amastigotes
SI, selectivity index: CC50 of LLC-MK2 cells/IC50 of intracellular amastigotes: recorded values

INSERT INTO results (smiles_record, result) VALUES
  ('O=[N+]([O-])c1nccn1Cc1cc(-c2ccc(Sc3ccc(Cl)cc3)cc2)no1', '>9.0'),
  ('COc1ccc(Oc2ccc(-c3cc(Cn4ccnc4[N+](=O)[O-])on3)cc2F)cc1', '>28.2'),
  ('O=[N+]([O-])c1nccn1Cc1cc(-c2ccc(Oc3ccc(OC(F)(F)F)cc3)c(F)c2)no1', '>14.7');

For Cc1ccc(Sc2ccc(-c3cc(Cn4ccnc4[N+](=O)[O-])on3)cc2)cc1 , what is its reported SI, selectivity index: CC50 of LLC-MK2 cells/IC50 of intracellular amastigotes?
>5.8

Hey, just so you know, these numbers are from paper PMC12658631.
